Target: Hexokinase-4 (Homo sapiens)
Sequence (P35557 whole entry): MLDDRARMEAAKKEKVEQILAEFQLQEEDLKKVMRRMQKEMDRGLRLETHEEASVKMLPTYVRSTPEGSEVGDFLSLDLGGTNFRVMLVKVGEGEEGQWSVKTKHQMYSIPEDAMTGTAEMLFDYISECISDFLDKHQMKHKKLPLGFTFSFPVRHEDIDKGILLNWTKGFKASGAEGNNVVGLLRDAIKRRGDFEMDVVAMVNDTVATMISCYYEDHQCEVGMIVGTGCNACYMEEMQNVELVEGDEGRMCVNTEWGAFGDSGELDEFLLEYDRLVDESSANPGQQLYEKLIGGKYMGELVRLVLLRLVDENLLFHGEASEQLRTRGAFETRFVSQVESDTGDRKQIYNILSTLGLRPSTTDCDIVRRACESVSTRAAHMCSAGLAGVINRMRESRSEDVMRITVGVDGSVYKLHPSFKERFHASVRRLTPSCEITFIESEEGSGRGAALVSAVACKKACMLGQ
Assay: Activation of human recombinant glucokinase using 5 mM glucose as substrate in presence of NAD+ and 4% HSA by glucose 6-phosphate dehydrogenase coupled assay
Result type: EC50

{"Structure smiles string": "CNC(=O)Nc1cc(Oc2cncc(OC)c2)c(C2=CCOCC2)cn1", "Tested system": "Hexokinase-4 (Homo sapiens)", "Result type": "EC50", "Result": "98 nM"}
{"Structure smiles string": "CNC(=O)Nc1cc(Oc2cncc(C)c2)c([C@H]2CCC[C@H](O)C2)cn1", "Tested system": "Hexokinase-4 (Homo sapiens)", "Result type": "EC50", "Result": "97 nM"}
{"Structure smiles string": "CNC(=O)Nc1cc(Oc2cncc(C)c2)c([C@H]2C[C@](C)(O)C2)cn1", "Tested system": "Hexokinase-4 (Homo sapiens)", "Result type": "EC50", "Result": "300 nM"}

All figures here come from ChEMBL document CHEMBL4425164.
